This collection of values is drawn from patent US20210388087A1.

- target of assay: T1, CD3 epsilon homodimer protein (UniProt P07766 23-126)
- T1 construct: also called CD3 (CD3 epsilon)
- T1 sequence (P07766 23-126): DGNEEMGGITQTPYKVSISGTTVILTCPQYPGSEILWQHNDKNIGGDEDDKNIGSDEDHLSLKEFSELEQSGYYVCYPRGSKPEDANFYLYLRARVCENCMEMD
- experimental details: SPR Biacore T200, CD3e homodimer on chip, vs unaltered GLS3000 antibody
attribute measured: ratio of amounts bound (Z=Y/X)

Below are some binders; for each one, tell me its ratio of amounts bound (Z=Y/X).
1. GLS3000 V94D (antibody, name in Kabat numbering, V domains shown, one-arm IgG as m2) VH: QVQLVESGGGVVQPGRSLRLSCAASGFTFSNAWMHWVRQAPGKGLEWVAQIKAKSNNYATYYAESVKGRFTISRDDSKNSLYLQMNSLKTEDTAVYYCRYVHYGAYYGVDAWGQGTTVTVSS VL: DIVMTQSPLSLPVTPGEPASISCRSSQSLVHSNRNTYLHWYQQKPGQAPRLLIYKVSNRFSGVPDRFSGSGSGTDFTLKISRVEAEDVGVYYCGQGTQDPYTFGQGTKLEIK
2. GLS3000 H27dK (antibody, name in Kabat numbering, V domains shown, one-arm IgG as m2) VH: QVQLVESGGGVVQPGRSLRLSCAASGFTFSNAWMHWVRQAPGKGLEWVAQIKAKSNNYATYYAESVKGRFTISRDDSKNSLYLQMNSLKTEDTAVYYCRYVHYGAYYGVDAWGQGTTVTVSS VL: DIVMTQSPLSLPVTPGEPASISCRSSQSLVKSNRNTYLHWYQQKPGQAPRLLIYKVSNRFSGVPDRFSGSGSGTDFTLKISRVEAEDVGVYYCGQGTQVPYTFGQGTKLEIK
3. GLS3000 F55G (antibody, name in Kabat numbering, V domains shown, one-arm IgG as m2) VH: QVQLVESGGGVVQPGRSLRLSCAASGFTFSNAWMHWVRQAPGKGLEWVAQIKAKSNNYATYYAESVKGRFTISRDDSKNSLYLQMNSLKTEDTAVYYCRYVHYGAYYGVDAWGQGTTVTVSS VL: DIVMTQSPLSLPVTPGEPASISCRSSQSLVHSNRNTYLHWYQQKPGQAPRLLIYKVSNRGSGVPDRFSGSGSGTDFTLKISRVEAEDVGVYYCGQGTQVPYTFGQGTKLEIK

## Output
1: 0.89; 2: 0.29; 3: 1.31
